The values you see were collected from ChEMBL document CHEMBL1157634.

- test_system: UniProtKB P22303
- Sequence (P22303 whole entry): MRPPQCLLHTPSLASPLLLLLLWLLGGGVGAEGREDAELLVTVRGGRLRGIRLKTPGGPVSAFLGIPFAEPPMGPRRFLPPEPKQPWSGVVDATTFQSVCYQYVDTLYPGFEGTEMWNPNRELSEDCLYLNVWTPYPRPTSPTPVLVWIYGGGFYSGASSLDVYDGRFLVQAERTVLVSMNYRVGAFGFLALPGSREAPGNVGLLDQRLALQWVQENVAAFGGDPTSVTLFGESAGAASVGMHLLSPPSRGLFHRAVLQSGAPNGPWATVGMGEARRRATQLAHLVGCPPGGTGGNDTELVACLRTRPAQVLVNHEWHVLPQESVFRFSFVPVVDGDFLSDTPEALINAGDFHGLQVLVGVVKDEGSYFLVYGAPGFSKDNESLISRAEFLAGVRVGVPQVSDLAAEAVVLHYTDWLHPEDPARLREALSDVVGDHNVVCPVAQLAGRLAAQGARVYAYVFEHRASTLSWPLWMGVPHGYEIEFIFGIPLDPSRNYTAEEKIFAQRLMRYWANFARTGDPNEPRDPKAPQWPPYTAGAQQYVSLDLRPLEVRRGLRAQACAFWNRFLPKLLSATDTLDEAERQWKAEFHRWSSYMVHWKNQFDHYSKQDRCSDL
- measurement_description: Inhibition of human recombinant AChE by modified Ellman's spectrophotometric method
- condition: read-out: Ki
pKi: −log10 of the molar value.
Below is a list of entries, each paired with its recorded pKi value.

- molecule_smiles: "NC(=O)N1c2ccccc2Sc2ccccc21"
  test_system: "UniProtKB P22303"
  pKi: 4.05
- molecule_smiles: "CCN(CC)CCNC(=O)N1c2ccccc2Sc2ccccc21"
  test_system: "UniProtKB P22303"
  pKi: 4.79
- molecule_smiles: "CCNC(=O)N1c2ccccc2Sc2ccccc21"
  test_system: "UniProtKB P22303"
  pKi: 2.84
